Catalogue of z-score readings, one per entry.
# SUBJECT OF TEST: NADPH oxidase 2 (Homo sapiens) (UniProt P04839)
# Sequence (P04839 whole entry, looked up): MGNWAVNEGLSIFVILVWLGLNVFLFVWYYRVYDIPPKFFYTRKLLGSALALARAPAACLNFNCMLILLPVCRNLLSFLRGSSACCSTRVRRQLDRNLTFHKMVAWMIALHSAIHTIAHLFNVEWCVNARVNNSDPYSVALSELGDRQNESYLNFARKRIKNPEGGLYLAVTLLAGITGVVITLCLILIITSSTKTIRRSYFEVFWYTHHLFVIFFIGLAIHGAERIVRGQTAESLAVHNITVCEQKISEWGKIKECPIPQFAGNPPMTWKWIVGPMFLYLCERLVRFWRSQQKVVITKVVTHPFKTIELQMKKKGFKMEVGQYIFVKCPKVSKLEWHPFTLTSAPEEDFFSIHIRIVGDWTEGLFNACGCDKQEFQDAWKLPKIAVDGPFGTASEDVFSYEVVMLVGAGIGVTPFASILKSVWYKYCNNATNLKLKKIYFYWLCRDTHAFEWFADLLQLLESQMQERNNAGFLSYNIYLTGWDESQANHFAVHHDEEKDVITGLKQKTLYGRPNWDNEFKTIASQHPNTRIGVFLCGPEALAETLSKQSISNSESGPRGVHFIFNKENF
# ASSAY COMMENT: NOX2-dependent H2O2 signal modulators, primary screen, NOX inhibitor project, cell-based, HEK293-NOX2, PMA-stimulated, Amplex Red fluorescence (AID 1159); further: test concentration not given here
# RUN PARAMETERS: 45 min, higher = more signal, called active from +8 up or from −8 down
MEASURED ENDPOINT: z-score

- MOL SMILES: "Cc1cc2c(c(=O)o1)[C@@H](O)[C@H]1O[C@H]1C2=O"
  REPORTED: 1.6
- MOL SMILES: "CC(C)=CCCC(C)=CCON=C1C[C@@H](O)[C@@H](O)[C@@H]2[C@@H]3C(=O)N(c4cccc(Oc5ccccc5)c4)C(=O)[C@@H]3CC[C@@H]12"
  REPORTED: -1.33
- MOL SMILES: "C[C@@H](c1ccccc1)N1C(=O)[C@H]2[C@H]3[C@H](O)[C@H](O)CC(=O)[C@H]3CC[C@H]2C1=O"
  REPORTED: -0.522
- MOL SMILES: "O=C1C[C@@H](O)[C@@H](O)[C@@H]2[C@@H]3C(=O)N(C[C@@H]4CCCO4)C(=O)[C@@H]3CC[C@@H]12"
  REPORTED: -1.38
- MOL SMILES: "CO[C@H]1COC(=O)[C@H](C)NC(=O)CC=C[C@@H](C)[C@H](OC)COC(=O)[C@@H](OCc2ccccc2)C=C[C@@H]1C"
  REPORTED: 1.18
- MOL SMILES: "COc1ccc(O[C@H]2C=C[C@@H](c3ccccc3)O[C@@H]2CON=C(C)C)cc1"
  REPORTED: -0.254
- MOL SMILES: "CC(C)CON=C1C[C@@H](O)[C@@H](O)[C@@H]2[C@@H]3C(=O)N(C[C@@H]4CCCO4)C(=O)[C@@H]3CC[C@@H]12"
  REPORTED: 0.957

---

Catalogue of z-score readings, one per entry.
# ASSAY COMMENT: CREB reporter modulators without forskolin, primary screen, cell-based, PC12, CRE-LacZ reporter, unstimulated (AID 1145)
# RUN PARAMETERS: no forskolin, luminescence, 4.5 h, higher = more signal, called active from +8 up or from −8 down

- COMPOUND: "CC(C)(C)N1C(=O)[C@H]2[C@H]3[C@H](O)[C@H](O)CC(=NO[C@@H]4O[C@H](CO)[C@@H](O)[C@H](O)[C@H]4O)[C@H]3CC[C@H]2C1=O"
  z-score: -0.656
- COMPOUND: "O=C1[C@H]2[C@H]3[C@H](O)[C@H](O)CC(=NOCc4ccccc4)[C@@H]3CC[C@H]2C(=O)N1c1ccc(F)cc1F"
  z-score: -0.469
- COMPOUND: "COC(=O)[C@H](C)NC(=O)CCC1CC(OC(=O)NCc2ccc3c(c2)OCO3)CC2(CCCC(COC(=O)NCC3CCCCC3)O2)O1 (some centres undefined)"
  z-score: 0.104
- COMPOUND: "C[C@@H](c1ccccc1)N1C(=O)[C@H]2[C@H]3[C@H](O)[C@H](O)CC(=NOCc4ccccc4)[C@H]3CC[C@H]2C1=O"
  z-score: 0.0687
- COMPOUND: "CCN1C(=O)[C@H]2[C@H]3[C@H](O)[C@H](O)CC(=O)[C@H]3CC[C@H]2C1=O"
  z-score: -0.293
- COMPOUND: "COC(=O)[C@@H]1CC[C@H](C)[C@@H](c2ccc(C)cc2)N1C(=O)c1ccc(C=NO[C@@H]2O[C@H](COC(C)=O)[C@@H](OC(C)=O)[C@H](OC(C)=O)[C@H]2OC(C)=O)cc1"
  z-score: 2.22
- COMPOUND: "COc1ccc(COC(=O)NN=C2C[C@@H](O)[C@@H](O)[C@@H]3[C@@H]4C(=O)N(Cc5ccccc5)C(=O)[C@@H]4CC[C@H]23)cc1"
  z-score: 0.702
- COMPOUND: "COC(=O)CC=C[C@@H](C)[C@@H](C=NO[C@H](C)c1cn([C@@H]2COC[C@H]2O)nn1)NS(=O)(=O)c1ccc(C)cc1"
  z-score: 1.08
- COMPOUND: "CON=Cc1ccc(C(=O)N2[C@H](c3ccc(C)cc3)[C@@H](C)CC[C@H]2C(=O)OC)cc1"
  z-score: 0.336
- COMPOUND: "CCN1C(=O)[C@H]2[C@H]3[C@H](O)[C@H](O)CC(=NOC[C@H]4O[C@H](c5ccccc5)C=C[C@@H]4Oc4ccc(OC)cc4)[C@@H]3CC[C@H]2C1=O"
  z-score: 0.843
- COMPOUND: "O=C1CCCC(C2=CCCCC2=O)C1 (centres undefined)"
  z-score: 0.019
- COMPOUND: "COC(=O)[C@H](C)NC(=O)CCC1CC(OC(=O)NCc2ccc3c(c2)OCO3)CC2(CCCC(COC(=O)NCC(c3ccccc3)c3ccccc3)O2)O1 (some centres undefined)"
  z-score: -0.437
- COMPOUND: "COc1ccc(O[C@H]2C=C[C@@H](c3ccccc3)O[C@@H]2CON=CC[C@@H]2C=C[C@H](OC(C)=O)[C@@H](COC(C)=O)O2)cc1"
  z-score: 1.15
- COMPOUND: "CCOC(=O)NN=C1C[C@@H](O)[C@@H](O)[C@@H]2[C@@H]3C(=O)N(c4cccc(Oc5ccccc5)c4)C(=O)[C@@H]3CC[C@@H]12"
  z-score: -0.201

---

# System: glycogen synthase kinase-3 (GSK3A per assay name; protocol says GSK3B)
# ASSAY COMMENT: GSK3 binders on small-molecule microarrays, primary screen, biochemical, small-molecule microarray, 635 nm fluorescence, GSK3A (AID 1103); further: the record names both GSK3A and GSK3B
# RUN PARAMETERS: small-molecule microarray binding, fluorescence 635 nm; higher = more signal
Reported composite z-score by item:

- COMPOUND: "COc1ccc(C#C[C@@H]2C=C[C@H](OC(C)=O)[C@@H](COC(C)=O)O2)cc1"
  SUBJECT OF TEST: "glycogen synthase kinase-3 (GSK3A per assay name; protocol says GSK3B)"
  composite z-score: 0.185
- COMPOUND: "Cc1cc2c(c(=O)o1)[C@@H](O)[C@H]1O[C@H]1C2=O"
  SUBJECT OF TEST: "glycogen synthase kinase-3 (GSK3A per assay name; protocol says GSK3B)"
  composite z-score: 0.231
- COMPOUND: "COc1ccc(O[C@H]2C=C[C@@H](c3ccccc3)O[C@@H]2CON=C(C)CCC(=O)OC[C@H]2O[C@H](c3ccccc3)C=C[C@@H]2Oc2ccc(OC)cc2)cc1"
  SUBJECT OF TEST: "glycogen synthase kinase-3 (GSK3A per assay name; protocol says GSK3B)"
  composite z-score: -1.59
- COMPOUND: "C[C@@H]1C=CCC(=O)OC[C@H]2O[C@@H](C=C[C@@H]2O)[C@H](C)C=CCC(=O)OC1"
  SUBJECT OF TEST: "glycogen synthase kinase-3 (GSK3A per assay name; protocol says GSK3B)"
  composite z-score: 0.963
- COMPOUND: "O=C(NN=C1C[C@@H](O)[C@@H](O)[C@@H]2[C@@H]3C(=O)N(C[C@@H]4CCCO4)C(=O)[C@@H]3CC[C@@H]12)OCc1ccccc1"
  SUBJECT OF TEST: "glycogen synthase kinase-3 (GSK3A per assay name; protocol says GSK3B)"
  composite z-score: 1.09
- COMPOUND: "CCOC(=O)CCN1C(=O)[C@H]2[C@H]3[C@H](O)[C@H](O)CC(=NNC(=O)OCc4ccccc4)[C@@H]3CC[C@H]2C1=O"
  SUBJECT OF TEST: "glycogen synthase kinase-3 (GSK3A per assay name; protocol says GSK3B)"
  composite z-score: 0.323
- COMPOUND: "C#CCCCON=C1[C@H]2CCn3c(=O)n(C)c(=O)n3[C@H]2[C@H](O)[C@@H]2O[C@H]12"
  SUBJECT OF TEST: "glycogen synthase kinase-3 (GSK3A per assay name; protocol says GSK3B)"
  composite z-score: 0.832
- COMPOUND: "COc1ccc(COC(=O)NN=C2C[C@@H](O)[C@@H](O)[C@@H]3[C@@H]4C(=O)N(C5CCCCC5)C(=O)[C@@H]4CC[C@H]23)cc1"
  SUBJECT OF TEST: "glycogen synthase kinase-3 (GSK3A per assay name; protocol says GSK3B)"
  composite z-score: -0.784
- COMPOUND: "CC(C)CON=C1C[C@@H](O)[C@@H](O)[C@@H]2[C@@H]3C(=O)N(C(C)(C)C)C(=O)[C@@H]3CC[C@H]12"
  SUBJECT OF TEST: "glycogen synthase kinase-3 (GSK3A per assay name; protocol says GSK3B)"
  composite z-score: -0.516
- COMPOUND: "CO[C@H]1COC(=O)[C@@H](C)COC(=O)[C@H](COCc2ccccc2)NC(=O)CC=C[C@H]1C"
  SUBJECT OF TEST: "glycogen synthase kinase-3 (GSK3A per assay name; protocol says GSK3B)"
  composite z-score: -0.523
- COMPOUND: "CCOC(=O)[C@H](CC(C)C)NC(=O)CCC1CC(OC(=O)NCc2cccc3ccccc23)CC2(CCCC(COC(=O)NCCCN3CCCC3=O)O2)O1 (stereo partly specified)"
  SUBJECT OF TEST: "glycogen synthase kinase-3 (GSK3A per assay name; protocol says GSK3B)"
  composite z-score: 0.819
- COMPOUND: "CC(C)CCN1CCc2nc(COc3ccccc3)c3c(c2C1)CO[C@@H](C)C3"
  SUBJECT OF TEST: "glycogen synthase kinase-3 (GSK3A per assay name; protocol says GSK3B)"
  composite z-score: -0.113
- COMPOUND: "C[C@H]1Cc2c(COc3ccccc3)nc3c(c2CO1)CN(CCOc1ccccc1)CC3"
  SUBJECT OF TEST: "glycogen synthase kinase-3 (GSK3A per assay name; protocol says GSK3B)"
  composite z-score: 1.15
- COMPOUND: "CCOC(=O)[C@H](Cc1ccccc1)NC(=O)OC1CC(CCC2CC(CC)=NO2)OC2(CCCC(COC(=O)NCCC(C)C)O2)C1 (stereo partly specified)"
  SUBJECT OF TEST: "glycogen synthase kinase-3 (GSK3A per assay name; protocol says GSK3B)"
  composite z-score: 0.207
- COMPOUND: "C[C@@H]1NC(=O)[C@@H](C)COC(=O)[C@H](C)NC(=O)[C@@H](C)COC1=O"
  SUBJECT OF TEST: "glycogen synthase kinase-3 (GSK3A per assay name; protocol says GSK3B)"
  composite z-score: 0.642
- COMPOUND: "CO[C@@H]1COC(=O)[C@@H](C)COC(=O)[C@@H](C)NC(=O)CC=C[C@@H]1C"
  SUBJECT OF TEST: "glycogen synthase kinase-3 (GSK3A per assay name; protocol says GSK3B)"
  composite z-score: 0.571

The measurements presented in this section are drawn from PubChem BioAssay.
